Reference source: patent US20120165331A1

Biological target: human orexin 2 receptor (Homo sapiens, UniProt O43614)
Construct: expressed in transfected cells
Sequence (O43614 1-444): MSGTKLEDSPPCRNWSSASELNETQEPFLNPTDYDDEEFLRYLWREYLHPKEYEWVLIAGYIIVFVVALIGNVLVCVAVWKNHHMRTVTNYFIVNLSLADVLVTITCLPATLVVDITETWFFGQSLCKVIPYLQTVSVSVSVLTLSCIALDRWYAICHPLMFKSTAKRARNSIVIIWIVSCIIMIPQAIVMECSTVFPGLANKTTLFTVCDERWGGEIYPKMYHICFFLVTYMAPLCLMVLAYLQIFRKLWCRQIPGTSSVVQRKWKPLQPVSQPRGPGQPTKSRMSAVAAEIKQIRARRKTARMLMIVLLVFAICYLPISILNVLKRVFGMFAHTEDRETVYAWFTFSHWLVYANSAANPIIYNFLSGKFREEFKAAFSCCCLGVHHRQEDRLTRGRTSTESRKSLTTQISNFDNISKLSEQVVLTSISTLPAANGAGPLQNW
Assay: Radioligand binding assay ([3H]-SB649868 competition), human orexin 2 receptor
Settings: radioligand [3H]-SB649868; read-out: Binding hOx2R Kd
I'd appreciate it if you could supply log10 of Kd values for the items below.
Friendly reminder: values = log10 of Kd, unit nM.

Record COc1ccc2[nH]cc(CN3CCNC4(CCN(c5nc(C)cc(C)n5)CC4)C3=O)c2c1 , field log10 of Kd: 0.60

Record Cc1cc(C)nc(N2CCC3(CC2)NCCN(Cc2nn(C)cc2-c2cccc(OC(F)(F)F)c2)C3=O)n1 , field log10 of Kd: 1.96

Record COc1cccc(-c2ocnc2CN2CCOC3(CCN(c4nc(C)cc(OC)n4)CC3)C2=O)c1 , field log10 of Kd: 0.85

Record COc1cccc(-c2oc(C)nc2CN2CCNC3(CCN(c4nccc(OC)n4)CC3)C2=O)c1 , field log10 of Kd: 2.40

Record COc1cccc(-c2cn(C)nc2CN2CCNC3(CCN(c4nc(C)cc(C)n4)CC3)C2=O)c1 , field log10 of Kd: 1.62

Record COc1ccnc(N2CCC3(CCCN(Cc4c[nH]c5ccccc45)C3=O)C2)n1 (centres unmarked) , field log10 of Kd: 2.18

Record Cc1cc(C)nc(N2CCC3(CC2)NCCN(Cc2nn(C)cc2-c2cccc(OCC(C)C)c2)C3=O)n1 , field log10 of Kd: 1.65

Record Cc1cc(C)nc(N2CCC3(CC2)NCCN(Cc2nn(C)cc2-c2cccc(Cl)c2)C3=O)n1 , field log10 of Kd: 2.59

---

target: human orexin 2 receptor (Homo sapiens); assay: Calcium accumulation in cells (FLIPR), antagonism of orexin A, human orexin 2 receptor; conditions: calcium accumulation, antagonism of orexin A, Cheng-Prusoff corrected; read-out: FLIPR hOx2R Ki
I'd appreciate it if you could supply Ki values for the items below.
Respond with the bare value in nM.

Reported Ki (human orexin 2 receptor (Homo sapiens)) for entry Cc1cc(C)nc(N2CCC3(CC2)COC(=O)N3Cc2c[nH]c3ccccc23)n1 is 448

Reported Ki (human orexin 2 receptor (Homo sapiens)) for entry Cc1ccc(C)c(CN2C(=O)COCC23CCN(c2nc(C)cc(C)n2)CC3)c1 is 28

Reported Ki (human orexin 2 receptor (Homo sapiens)) for entry COc1cccc(-c2ocnc2CN2CCNC3(CCN(c4nc(C)cc(C#N)n4)CC3)C2=O)c1 is 10

Reported Ki (human orexin 2 receptor (Homo sapiens)) for entry Cc1cccc(-c2cn(C)nc2CN2CCNC3(CCN(c4nc(C)cc(C)n4)CC3)C2=O)c1 is 204

---

I'd appreciate it if you could supply Kd values for the items below.
biological target: human orexin 1 receptor (Homo sapiens); construct: expressed in transfected cells; assay: Radioligand binding assay ([3H]-SB649868 competition), human orexin 1 receptor; conditions: radioligand [3H]-SB649868; read-out: Binding hOx1R Kd
Respond with the bare value in nM.

Record O=C1N(Cc2c[nH]c3ccccc23)CCC12CCN(c1cnc3ccccc3n1)CC2 , field Kd: 920

Record CN(C)c1cc(C(F)(F)F)nc(N2CCC3(CCN(Cc4c[nH]c5ccccc45)C3=O)C2)n1 (centres unmarked) , field Kd: 1030

Record Cc1cc(C)nc(N2CCC3(CC2)NCCN(Cc2nn(C)cc2-c2cccc(OCC4CC4)c2)C3=O)n1 , field Kd: 436

Record COc1cccc(-c2oc(C)nc2CN2CCNC3(CCN(c4nccc(OC)n4)CC3)C2=O)c1 , field Kd: 2350

Record Cc1cc(C)nc(N2CCC3(CC2)NCCN(Cc2c[nH]c4ccc(F)cc24)C3=O)n1 , field Kd: 770

Record COc1cccc(-c2oc(C)nc2CN2CCNC3(CCN(c4nc(C)cc(C)n4)CC3)C2=O)c1 , field Kd: 445

Record Cc1cc(C)nc(N2CCC3(CC2)NCCN(Cc2nn(C)nc2-c2cccc(OC(C)C)c2)C3=O)n1 , field Kd: 535

Record Cc1cc(C)nc(N2CCC3(CC2)OCCN(Cc2n[nH]cc2-c2ccccc2)C3=O)n1 , field Kd: 1560

---

I'd appreciate it if you could supply pKd values for the items below.
Biological target: human orexin 1 receptor (Homo sapiens, UniProt O43613)
Construct: expressed in transfected cells
Sequence (O43613 whole entry): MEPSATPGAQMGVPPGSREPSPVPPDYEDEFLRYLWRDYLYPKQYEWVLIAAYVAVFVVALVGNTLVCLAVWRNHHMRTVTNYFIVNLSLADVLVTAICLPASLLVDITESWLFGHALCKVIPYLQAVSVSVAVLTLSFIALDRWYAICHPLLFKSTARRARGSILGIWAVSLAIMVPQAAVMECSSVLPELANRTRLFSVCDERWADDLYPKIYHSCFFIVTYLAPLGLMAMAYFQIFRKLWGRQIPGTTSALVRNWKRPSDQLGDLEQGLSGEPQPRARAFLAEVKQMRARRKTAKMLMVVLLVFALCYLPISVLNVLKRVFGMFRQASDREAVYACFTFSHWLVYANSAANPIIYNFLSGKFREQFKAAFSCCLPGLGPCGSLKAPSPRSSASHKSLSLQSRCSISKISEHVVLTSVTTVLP
Experiment: Radioligand binding assay ([3H]-SB649868 competition), human orexin 1 receptor
Settings: radioligand [3H]-SB649868; read-out: Binding hOx1R Kd
Method: Radioligand Binding Assay […] Bound radioactivity was measured, and data were analysed with the program XLFIT or Graphpad Prism. Protein concentration was determined according to the Bradford/BioRad Protein Assay Kit. […]
In plain terms, pKd is the concentration in mol/L turned into minus its base-10 logarithm.

Record COCc1cccc(-c2oc(C)nc2CN2CCNC3(CCN(c4nc(C)cc(C)n4)CC3)C2=O)c1 , field pKd: 5.67

Record Cc1ccc(C)c(CN2C(=O)OCC23CCN(c2cnc4ccccc4n2)CC3)c1 , field pKd: 6.77

Record COc1cccc(-c2cn(C)nc2CN2CCNC3(CCN(c4nc(C)cc(C)n4)CC3)C2=O)c1 , field pKd: 5.79

Record Cc1cc(C)nc(N2CCC3(CC2)NCCN(Cc2nn(C)cc2-c2cccc(N4CCOCC4)c2)C3=O)n1 , field pKd: 5.86

---

molecular target: human orexin 2 receptor (Homo sapiens); test: Calcium accumulation in cells (FLIPR), antagonism of orexin A, human orexin 2 receptor; settings: calcium accumulation, antagonism of orexin A, Cheng-Prusoff corrected; read-out: FLIPR hOx2R Ki
REPORTED METRIC: Ki (µM)
Respond with the bare value in µM.

Record O=C1N(Cc2c[nH]c3ccccc23)CCC12CCN(c1nccc(C(F)(F)F)n1)C2 (centres unmarked) , field Ki: 0.343

Record Cc1cc(C)nc(N2CCC3(CC2)OCCN(Cc2c[nH]c4ccccc24)C3=O)n1 , field Ki: 0.029

Record Cc1cc(C)nc(N2CCC3(CC2)NCCN(Cc2nn(C)cc2-c2ccccc2)C3=O)n1 , field Ki: 0.334

Record COc1cc(C)nc(N2CCC3(CCN(Cc4cccc5[nH]ccc45)C3=O)C2)n1 (centres unmarked) , field Ki: 0.629

Record Cc1cc(C)nc(N2CCC3(CC2)NCCN(Cc2nn(C)cc2-c2cccc(C(F)F)c2)C3=O)n1 , field Ki: 0.03

Record Cc1cc(C)nc(N2CCC3(CC2)NCCN(Cc2nn(C)cc2-c2cccc(OCC4CC4)c2)C3=O)n1 , field Ki: 0.0028

Record Cc1cc(C)nc(N2CCC3(CC2)NCCN(Cc2nn(C)nc2-c2ccc4c(c2)OCCO4)C3=O)n1 , field Ki: 0.0043

Record COCc1cccc(-c2oc(C)nc2CN2CCNC3(CCN(c4nc(C)cc(OC)n4)CC3)C2=O)c1 , field Ki: 0.084

---

target: human orexin 2 receptor (Homo sapiens); construct: expressed in transfected cells; test: Radioligand binding assay ([125I]orexin A competition), human orexin 2 receptor; details: radioligand [125I]orexin A instead of [3H]-SB649868; read-out: Binding hOx2R Kd
REPORTED METRIC: Kd (nM)
Respond with the bare value in nM.

Record O=C1N(Cc2cccc3ccccc23)CCC12CCN(c1nc3ccccc3[nH]1)CC2 , field Kd: 1920

Record O=C1N(Cc2cccc3ccccc23)CCC12CCN(c1cnc3ccccc3n1)CC2 , field Kd: 414

---

Biological target: human orexin 2 receptor (Homo sapiens, UniProt O43614)
Sequence (O43614 1-444): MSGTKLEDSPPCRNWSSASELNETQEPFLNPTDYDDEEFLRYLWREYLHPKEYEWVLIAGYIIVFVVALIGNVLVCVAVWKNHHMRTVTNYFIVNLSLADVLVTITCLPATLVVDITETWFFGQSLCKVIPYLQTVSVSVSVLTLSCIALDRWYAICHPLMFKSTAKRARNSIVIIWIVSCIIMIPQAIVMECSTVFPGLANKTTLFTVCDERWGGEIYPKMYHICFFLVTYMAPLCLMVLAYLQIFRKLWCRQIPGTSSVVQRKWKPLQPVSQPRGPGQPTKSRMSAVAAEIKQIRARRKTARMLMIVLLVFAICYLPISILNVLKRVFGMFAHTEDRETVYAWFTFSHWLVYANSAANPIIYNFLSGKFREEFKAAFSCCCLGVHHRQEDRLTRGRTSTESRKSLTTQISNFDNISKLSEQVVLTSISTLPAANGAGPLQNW
Test: Calcium accumulation in cells (FLIPR), antagonism of orexin A, human orexin 2 receptor
Conditions: calcium accumulation, antagonism of orexin A, Cheng-Prusoff corrected; read-out: FLIPR hOx2R Ki
pKi: −log10 of the molar value.
Where pKi equals or exceeds 6, the correct label is Condition met; where it does not, the label is Condition not met.

Inquiry: Assess whether reported pKi for COc1ccc2[nH]cc(CN3CCOC4(CCN(c5nc(C)cc(C)n5)CC4)C3=O)c2c1 sits at 6 or higher.
Reply text: Condition met

Inquiry: Assess whether reported pKi for COc1cc(C)nc(N2CCC3(CC2)OCCN(Cc2c[nH]c4ccccc24)C3=O)n1 sits at 6 or higher.
Reply text: Condition met

Inquiry: Assess whether reported pKi for CN(C)c1cc(C(F)(F)F)nc(N2CCC3(CCN(Cc4c[nH]c5ccccc45)C3=O)C2)n1 (centres unmarked) sits at 6 or higher.
Reply text: Condition met

Inquiry: Assess whether reported pKi for COc1ccnc(N2CCC3(CCN(Cc4c[nH]c5ccccc45)C3=O)C2)n1 (centres unmarked) sits at 6 or higher.
Reply text: Condition met

Inquiry: Assess whether reported pKi for COc1cc(C)nc(N2CCC3(CCN(Cc4ccccc4-c4nc(C)no4)C3=O)C2)n1 (centres unmarked) sits at 6 or higher.
Reply text: Condition met

Inquiry: Assess whether reported pKi for COCc1cccc(-c2oc(C)nc2CN2CCNC3(CCN(c4nc(C)cc(C)n4)CC3)C2=O)c1 sits at 6 or higher.
Reply text: Condition met

Inquiry: Assess whether reported pKi for Cc1cc(C)nc(N2CCC3(CCN(Cc4c[nH]c5ccccc45)C3=O)C2)c1 (centres unmarked) sits at 6 or higher.
Reply text: Condition met

Inquiry: Assess whether reported pKi for CC(=O)c1cccc(-c2cn(C)nc2CN2CCNC3(CCN(c4nc(C)cc(C)n4)CC3)C2=O)c1 sits at 6 or higher.
Reply text: Condition met

Inquiry: Assess whether reported pKi for COCc1cccc(-c2ocnc2CN2CCNC3(CCN(c4nc(C)cc(C)n4)CC3)C2=O)c1 sits at 6 or higher.
Reply text: Condition met

Inquiry: Assess whether reported pKi for COc1cc(C)nc(N2CCC3(CCN(Cc4nn(C)nc4-c4cccc(C)c4)C3=O)C2)n1 (centres unmarked) sits at 6 or higher.
Reply text: Condition met

Inquiry: Assess whether reported pKi for COc1cc(OC)cc(-c2cn(C)nc2CN2CCNC3(CCN(c4nc(C)cc(C)n4)CC3)C2=O)c1 sits at 6 or higher.
Reply text: Condition not met

Inquiry: Assess whether reported pKi for COc1ccnc(N2CCC3(CCN(Cc4c[nH]c5ccccc45)C3=O)C2)c1 (centres unmarked) sits at 6 or higher.
Reply text: Condition met

Inquiry: Assess whether reported pKi for O=C1N(Cc2c[nH]c3ccccc23)CCC12CCN(c1nc3ccccc3o1)C2 (centres unmarked) sits at 6 or higher.
Reply text: Condition met

Inquiry: Assess whether reported pKi for Cc1cc(C)nc(N2CCC3(CC2)NCCN(Cc2nn(C)cc2-c2cccc(-c4nnc(C)o4)c2)C3=O)n1 sits at 6 or higher.
Reply text: Condition met

Inquiry: Assess whether reported pKi for Cc1cc(C)nc(N2CCC3(CC2)NCCN(Cc2nn(C)cc2-c2cccc(-n4cccn4)c2)C3=O)n1 sits at 6 or higher.
Reply text: Condition met

Inquiry: Assess whether reported pKi for Cc1ccc(C)c(CN2C(=O)CCC23CCN(c2cnc4ccccc4n2)CC3)c1 sits at 6 or higher.
Reply text: Condition met

Inquiry: Assess whether reported pKi for Cc1cc(C)nc(N2CCC3(CC2)OCCN(Cc2n[nH]nc2-c2ccccc2)C3=O)n1 sits at 6 or higher.
Reply text: Condition met

Inquiry: Assess whether reported pKi for COc1cccc(-c2ocnc2CN2CCNC3(CCN(c4nc(C)cc(OC)n4)CC3)C2=O)c1 sits at 6 or higher.
Reply text: Condition met

Inquiry: Assess whether reported pKi for O=C1N(Cc2c[nH]c3ccccc23)CCC12CCN(c1cnc3ccccc3n1)CC2 sits at 6 or higher.
Reply text: Condition met

Inquiry: Assess whether reported pKi for O=C1N(Cc2c[nH]c3ccccc23)CCC12CCN(c1cc(N3CCCC3)ncn1)C2 (centres unmarked) sits at 6 or higher.
Reply text: Condition not met

Inquiry: Assess whether reported pKi for Cc1ccc(C)c(CN2C(=O)COCC23CCN(c2cncc(C)n2)CC3)c1 sits at 6 or higher.
Reply text: Condition met

Inquiry: Assess whether reported pKi for COc1cc(C)nc(N2CC[C@@]3(CCCN(Cc4c[nH]c5ccccc45)C3=O)C2)n1 (single isomer, unassigned) sits at 6 or higher.
Reply text: Condition met

Inquiry: Assess whether reported pKi for CCc1cc(C)nc(N2CCC3(CC2)OCCN(Cc2c[nH]c4ccccc24)C3=O)n1 sits at 6 or higher.
Reply text: Condition met

Inquiry: Assess whether reported pKi for Cn1ccc2ccnc(N3CCC4(CCN(Cc5c[nH]c6ccccc56)C4=O)C3)c21 (centres unmarked) sits at 6 or higher.
Reply text: Condition not met

Inquiry: Assess whether reported pKi for Cc1cc(C)nc(N2CCC3(CCN(Cc4ccc5[nH]ccc5c4)C3=O)CC2)n1 sits at 6 or higher.
Reply text: Condition not met

Inquiry: Assess whether reported pKi for Cc1cc(C)nc(N2CCC3(CC2)OCCN(Cc2c[nH]c4ccc(F)cc24)C3=O)n1 sits at 6 or higher.
Reply text: Condition met
